target: UniProtKB P35439; assay: In vitro binding assay for the displacement of [3H]MDL-105519 from the glycine-site of NMDA receptors
pIC50: −log10 of the molar value.

MOLECULE: Cc1ncccc1C(=O)NCc1cc(Br)cc2nc(O)c(O)nc12
CENSOR_SYMBOL: =
pIC50: 5.74
--
MOLECULE: O=C(Cc1ccccc1)NCc1cc([N+](=O)[O-])cc2[nH]c(=O)c(=O)[nH]c12
CENSOR_SYMBOL: =
pIC50: 7.40
--
MOLECULE: O=C(Cc1ccccc1)NCc1cc(Br)cc2[nH]c(=O)c(=O)[nH]c12
CENSOR_SYMBOL: =
pIC50: 8.00
--
MOLECULE: O=C(Cc1ccc([N+](=O)[O-])cc1)NCc1cc(Br)cc2nc(O)c(O)nc12
CENSOR_SYMBOL: =
pIC50: 5.92
--
MOLECULE: O=C(NCc1cc(Br)cc2nc(O)c(O)nc12)c1ccncc1
CENSOR_SYMBOL: =
pIC50: 6.60
--
MOLECULE: O=C(Cc1ccccc1[N+](=O)[O-])NCc1cc(Br)cc2nc(O)c(O)nc12
CENSOR_SYMBOL: =
pIC50: 7.70
--
MOLECULE: O=C(NCc1cc([N+](=O)[O-])cc2[nH]c(=O)c(=O)[nH]c12)c1cc(O)c(O)c(O)c1
CENSOR_SYMBOL: =
pIC50: 6.82
--
MOLECULE: COc1cc(C(=O)NCc2cc([N+](=O)[O-])cc3[nH]c(=O)c(=O)[nH]c23)cc(OC)c1OC
CENSOR_SYMBOL: =
pIC50: 6.70
--
MOLECULE: O=C(Cc1ccccc1)NCc1cc(Cl)cc2nc(O)c(O)nc12
CENSOR_SYMBOL: =
pIC50: 8.00
--
MOLECULE: Nc1ccccc1C(=O)NCc1cc([N+](=O)[O-])cc2[nH]c(=O)c(=O)[nH]c12
CENSOR_SYMBOL: =
pIC50: 6.77
--
MOLECULE: O=C(NCc1cc(Br)cc2[nH]c(=O)c(=O)[nH]c12)Oc1ccccc1
CENSOR_SYMBOL: =
pIC50: 5.82
--
MOLECULE: O=C(Cc1cccc(Cl)c1)NCc1cc(Br)cc2nc(O)c(O)nc12
CENSOR_SYMBOL: =
pIC50: 7.40
--
MOLECULE: O=C(NCc1cc(Br)cc2[nH]c(=O)c(=O)[nH]c12)C(O)c1ccccc1 (configuration not stated)
CENSOR_SYMBOL: =
pIC50: 7.30
--
MOLECULE: O=C(NCc1cc([N+](=O)[O-])cc2nc(O)c(O)nc12)Nc1ccc(OC(F)(F)F)cc1
CENSOR_SYMBOL: =
pIC50: 6.46
--
MOLECULE: O=C(NCc1cc(Br)cc2nc(O)c(O)nc12)c1cc(C(F)(F)F)cc(C(F)(F)F)c1
CENSOR_SYMBOL: <
pIC50: 5.00
--
MOLECULE: O=C(NCc1cc(Br)cc2nc(O)c(O)nc12)OCc1ccccc1
CENSOR_SYMBOL: =
pIC50: 6.96
--
MOLECULE: O=C(NCc1cc([N+](=O)[O-])cc2nc(O)c(O)nc12)Nc1ccccc1
CENSOR_SYMBOL: =
pIC50: 6.05
--
MOLECULE: O=C(Cc1ccccc1)NCc1cccc2[nH]c(=O)c(=O)[nH]c12
CENSOR_SYMBOL: =
pIC50: 7.05
--
MOLECULE: Cc1ccsc1C(=O)NCc1cc(Br)cc2nc(O)c(O)nc12
CENSOR_SYMBOL: =
pIC50: 7.70
--
MOLECULE: O=C(NCc1cc([N+](=O)[O-])cc2[nH]c(=O)c(=O)[nH]c12)c1ccccc1O
CENSOR_SYMBOL: =
pIC50: 7.40
--
MOLECULE: O=C(CCc1ccccc1)NCc1cc(Br)cc2nc(O)c(O)nc12
CENSOR_SYMBOL: =
pIC50: 6.07
--
MOLECULE: O=C(NCc1cc(Br)cc2nc(O)c(O)nc12)c1cccnc1
CENSOR_SYMBOL: =
pIC50: 6.55
